These entries and their values trace back to the RNAGym collection of RNA variant scans (doi:10.1021/acssynbio.7b00057).

B1: Pistol ribozyme (parent)
chain: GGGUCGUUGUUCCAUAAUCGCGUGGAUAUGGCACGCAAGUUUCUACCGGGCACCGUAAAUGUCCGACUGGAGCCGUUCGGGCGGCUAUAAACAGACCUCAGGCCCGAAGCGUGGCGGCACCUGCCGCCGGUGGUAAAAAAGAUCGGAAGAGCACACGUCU

- Variants of: B1
- protocol summary: aptazyme ON/OFF ratio, guanine; higher = stronger switching; co-transcriptional cleavage with and without guanine
As shown below, each of these variants has a reported aptazyme ON/OFF ratio value.
reported property: aptazyme ON/OFF ratio

{"columns": ["mutation notation", "reported"],
 "data": [
  ["U8G G9A U11A C12A C13U", 1.15],
  ["U7G U8G G9A C13G", 1.17],
  ["U7C U8G U10A U11C C12A C13A", 1.14],
  ["U7C U8G G9C U10A U11G C12G C13U", 1.18],
  ["U7G G9U U11G C12G C13G", 1.21],
  ["U7G U8C G9C C13U", 1.15],
  ["U8G C12G C13G", 1.15],
  ["U7C U8C G9C U10A U11C C12G C13G", 1.15],
  ["U7C U8A G9C C13A", 1.02],
  ["U7G U8G U10G U11C C13G", 1.29],
  ["G9A U11G C12U C13U", 1.21],
  ["U7G U8G G9U U10G U11A C13G", 1.16],
  ["U7C U8C C12G", 1.18],
  ["U7C U8C U10C C13G", 1.24],
  ["U7A U8A G9A U10A U11A C13A", 1.16],
  ["U7G G9C U10C U11A C12A C13U", 1.25],
  ["U7A U8A G9C U11C C12U", 1.09],
  ["U7C U11A C12U", 1.18],
  ["U7C U8A U10G U11G C12G", 1.18],
  ["U7G U8C G9C U10C U11A C12A C13A", 1.04],
  ["U8A U11A C12G C13A", 1.18],
  ["U7A U8C U10G U11G C12A C13G", 1.15],
  ["G9A C12G C13G", 1.46],
  ["U7A U8A U10A U11A C12U", 1.2],
  ["U7C U8G U10A C12U", 2.01],
  ["U7A U8G U10A U11C C12G C13G", 1.26],
  ["U7C U8A G9C U10C U11A C12A", 1.03],
  ["U11G C12U", 1.29],
  ["U8C U11A C12U", 1.19],
  ["U7C U8A G9C U10A U11A C12U C13A", 1.05],
  ["U11C C12U C13G", 1.43],
  ["U7G U8A", 1.54],
  ["U7C U8C U10G U11A C13G", 1.14],
  ["U7C U8C U10G U11C C12A C13G", 1.11],
  ["U7A U8G U10C U11G C12A C13U", 1.19],
  ["U7C U10G U11C C12G", 1.52],
  ["U8A U10G U11A C13A", 1.07],
  ["U7G U8A G9A U10G C12U C13U", 1.13],
  ["U7G U8C G9U U10G C12G C13A", 1.28],
  ["U7G U8A G9U U10C U11G C13A", 1.1],
  ["U7G G9A U10G U11C C12G C13G", 1.08],
  ["U7A U8G G9C U10A U11G", 1.9],
  ["U7A U8A U10C U11C C13G", 1.07],
  ["G9A U10A U11G C12G C13U", 1.25],
  ["U8A G9U U10A C13A", 1.26],
  ["U8G G9A U10G U11G C12U C13A", 1.36],
  ["U7A U8G U10C U11G C12U C13G", 1.44],
  ["U7G U8G G9A U11A C13G", 1.06],
  ["G9U U10C C12A", 1.77],
  ["U8A G9C U11A C12U C13A", 1.14],
  ["U7A U8A U10C U11A C13U", 1.05],
  ["U7C G9U U10A U11C C12G", 1.43],
  ["U7C G9A C13U", 1.17],
  ["U7A U8A U11A C13U", 1.11],
  ["U7A U8C G9C U11G C12U C13A", 1.17],
  ["U7G G9A U10G U11C C12A C13G", 1.06],
  ["U7G U8C U10A U11G C13A", 1.22],
  ["G9A U10A U11C C12U C13U", 1.26],
  ["U7C U8C G9C U10C U11C C12A C13G", 1.09],
  ["U7A U8C U11G C12G C13U", 1.11],
  ["U7C G9U U10A U11G C12G C13A", 1.1],
  ["U8G U10G U11G C12G C13A", 1.15],
  ["G9U U10C C13A", 1.22],
  ["U7C U8C C12A C13G", 1.1],
  ["U7A U8C G9C U11A C12G C13U", 1.13],
  ["U7C U8C G9C U10C U11G C13G", 1.19],
  ["U7G G9U U10G U11A C12A C13G", 1.06],
  ["U8A G9U U11C C12G C13A", 1.14],
  ["U7C U8A U10A U11A", 1.14],
  ["U8C G9U U10C C12G", 1.26],
  ["U7A U8C G9C U10G U11G C12A C13G", 1.07],
  ["U8G G9C U10G U11A C13A", 1.05],
  ["U7C U8G G9U U10A C12U", 1.15],
  ["U7A U8A G9C U10G C13U", 1.56],
  ["U7C U8C G9C U10A U11C C12A", 1.21],
  ["U7C U8C G9U U11G C13A", 1.21],
  ["U8A G9A U10A U11A C13U", 1.09],
  ["U7A U8C U10G U11A C13G", 1.2],
  ["U8C G9U U10C U11C C12U C13A", 1.07],
  ["U7A U8G G9U U10A U11C C12G C13G", 1.27],
  ["U7A G9U U10G C12U C13G", 1.23],
  ["U7G U10A U11C", 1],
  ["U7C U8A G9C U11G C12U", 1.29],
  ["G9U U11C C12U C13U", 1.34],
  ["U7C U8C G9A U10G U11C C12U C13A", 1.29],
  ["U7A U8A G9A U10C U11A C12A C13G", 1.06],
  ["U7A U8A G9A U10G", 1.31],
  ["U8C U10C U11A C12U", 1.39],
  ["U7C U8G G9U U10G U11C C13G", 1.14],
  ["U7G U8G G9A U10A U11A C12G C13G", 1.1],
  ["G9C U10A C12G C13A", 1.31]
]}
